Target: T1, FV-short-QR∗ (FV-short-QR precleaved at Arg1545 with RVV-V) (human, UniProt P12259 29-1573; P12259 1574-2224, Δ756–1458 | Arg^709 replaced with Gln)
T1 construct: coagulation factor V heavy chain joined to the shortened B-domain with AR2; coagulation factor V light chain (LC), released by cleavage at Arg1545; also called FV-short cleaved at Arg1545; source: FV-short-QR (BHK cells, purified), 300 nM incubated with 2 nM RVV-V 30 min at 37 °C
T1 sequence (looked up) 1: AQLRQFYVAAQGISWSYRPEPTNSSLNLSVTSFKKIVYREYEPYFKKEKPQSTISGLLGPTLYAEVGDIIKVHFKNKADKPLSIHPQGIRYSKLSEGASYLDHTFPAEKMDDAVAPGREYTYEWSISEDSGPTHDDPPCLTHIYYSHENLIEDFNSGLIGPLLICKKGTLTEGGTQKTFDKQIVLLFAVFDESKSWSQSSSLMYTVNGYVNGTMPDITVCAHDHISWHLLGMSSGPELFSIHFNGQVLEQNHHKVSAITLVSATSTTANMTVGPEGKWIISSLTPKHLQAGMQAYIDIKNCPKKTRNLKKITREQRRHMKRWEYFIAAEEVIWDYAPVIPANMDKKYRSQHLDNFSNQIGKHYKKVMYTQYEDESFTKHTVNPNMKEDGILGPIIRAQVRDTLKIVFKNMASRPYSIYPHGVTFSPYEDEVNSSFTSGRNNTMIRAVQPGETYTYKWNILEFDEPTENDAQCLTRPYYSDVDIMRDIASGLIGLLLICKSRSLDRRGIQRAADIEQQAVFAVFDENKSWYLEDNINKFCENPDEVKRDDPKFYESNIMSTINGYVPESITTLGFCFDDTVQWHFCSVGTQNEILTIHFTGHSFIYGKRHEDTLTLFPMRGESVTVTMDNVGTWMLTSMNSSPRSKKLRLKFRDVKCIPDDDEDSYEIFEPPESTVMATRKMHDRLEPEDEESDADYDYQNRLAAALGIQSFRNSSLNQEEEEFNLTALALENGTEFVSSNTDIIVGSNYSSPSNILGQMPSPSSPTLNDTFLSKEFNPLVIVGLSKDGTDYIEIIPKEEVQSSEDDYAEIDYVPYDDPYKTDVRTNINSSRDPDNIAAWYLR
T1 sequence (looked up) 2: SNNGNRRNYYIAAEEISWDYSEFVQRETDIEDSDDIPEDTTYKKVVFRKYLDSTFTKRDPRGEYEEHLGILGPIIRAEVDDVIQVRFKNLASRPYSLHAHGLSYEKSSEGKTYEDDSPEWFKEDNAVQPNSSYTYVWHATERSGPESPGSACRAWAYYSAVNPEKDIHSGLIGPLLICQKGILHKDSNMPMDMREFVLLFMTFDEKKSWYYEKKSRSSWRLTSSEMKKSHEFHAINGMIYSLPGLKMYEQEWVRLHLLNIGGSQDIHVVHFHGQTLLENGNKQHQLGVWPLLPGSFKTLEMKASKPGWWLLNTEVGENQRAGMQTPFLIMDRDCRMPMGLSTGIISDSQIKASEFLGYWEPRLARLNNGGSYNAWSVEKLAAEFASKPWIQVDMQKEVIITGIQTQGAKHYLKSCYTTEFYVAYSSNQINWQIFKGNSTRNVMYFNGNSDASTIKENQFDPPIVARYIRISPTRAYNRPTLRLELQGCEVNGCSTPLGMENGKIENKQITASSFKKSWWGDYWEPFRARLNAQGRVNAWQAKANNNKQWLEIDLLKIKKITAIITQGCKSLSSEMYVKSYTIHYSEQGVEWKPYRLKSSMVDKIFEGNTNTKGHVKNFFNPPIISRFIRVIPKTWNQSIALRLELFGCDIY
Test: inhibition of prothrombinase (prothrombin activation assay); 0.1 nM cofactor species, 50 μM PCPS, 1.4 μM prothrombin, 3 μM DAPA, TFPIα-BR 0–7 μM, started with 2 nM FXa, assay buffer, 25 °C; Ki from the equation for competitive inhibition
Settings: both partners purified
observedProperty: Ki

KKGFIQRISKGGLIKTKRKRKKQRVKIAYEEIFVKNM (domain or fragment, limits not printed (refs 17, 18); taken as the whole C-terminal tail after Kunitz 3 (mature 240-276); expressed in E. coli, unglycosylated) [TFPIα-BR, fragment containing the BR sequence of TFPIα] :: > 7 µM
